targetEntity: MAPK14 (human) (UniProt Q16539)
Sequence (Q16539 whole entry, looked up): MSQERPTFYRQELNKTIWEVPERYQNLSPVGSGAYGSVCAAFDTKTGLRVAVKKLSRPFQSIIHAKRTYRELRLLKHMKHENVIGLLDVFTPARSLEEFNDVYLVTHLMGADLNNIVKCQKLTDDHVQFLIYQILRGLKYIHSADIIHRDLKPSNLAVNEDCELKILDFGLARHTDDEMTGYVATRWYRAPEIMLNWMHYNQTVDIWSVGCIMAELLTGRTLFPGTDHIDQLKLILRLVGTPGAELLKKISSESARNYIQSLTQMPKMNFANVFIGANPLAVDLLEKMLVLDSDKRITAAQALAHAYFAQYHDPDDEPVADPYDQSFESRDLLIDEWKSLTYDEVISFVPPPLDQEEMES
Readings of IC50 for the listed compounds

Known results for compounds:
{"columns": ["recordSmiles", "IC50"],
 "data": [
  ["O=Cc1cc(OCc2ccc(F)cc2F)c(Br)c(=O)n1-c1c(F)cccc1F", "< 1 µM"],
  ["Cc1cc(OCc2ccc(F)cc2F)c(Br)c(=O)n1Cc1cnc(C(C)(C)O)cn1", "1 to 25 µM"]
]}

Lookup: Which IC50 value is on record for Cc1cc(OCc2ccc(F)cc2F)c(Br)c(=O)n1-c1cccc(CN(C)C)c1 ?
Found: 1 to 25 µM

Lookup: And Cc1cc(OCc2ccc(F)cc2F)c(Br)c(=O)n1Cc1ccccc1C(N)=O ?
Found: 1 to 25 µM

Lookup: And O=c1cc(OCc2cccc(Cl)c2)ccn1Cc1ccccc1 ?
Found: 25 to 100 µM

Lookup: And Cc1cc(OCc2ccc(F)cc2F)c(Br)c(=O)n1Cc1ccc(C(=O)N(C)CCO)cc1 ?
Found: < 1 µM

Lookup: And O=c1c(I)c(OCc2ccccc2)ccn1Cc1ccccc1 ?
Found: 1 to 25 µM

Lookup: And Cc1cc(OCc2ccc(F)cc2F)c(Br)c(=O)n1-c1c(F)c(Br)c(O)c(Br)c1F ?
Found: 1 to 25 µM

Lookup: And O=c1c(Br)c(NCc2ccc(F)cc2F)ccn1Cc1cccc(F)c1 ?
Found: < 1 µM

Lookup: And COCCNCc1cc(OCc2ccc(F)cc2F)c(Br)c(=O)n1-c1c(F)cccc1F ?
Found: < 1 µM

Lookup: And CNCc1cnc(Cn2c(C)cc(OCc3ccc(F)cc3F)c(Br)c2=O)cn1 ?
Found: 1 to 25 µM

Lookup: And Cc1cc(OCc2ccc(F)cc2F)c(Br)c(=O)n1-c1c(F)cc(N2CCN(C)CC2)cc1F ?
Found: < 1 µM

Lookup: And O=c1c(Br)c(OCc2ccccc2)ccn1Cc1cccc(F)c1 ?
Found: < 1 µM

Lookup: And O=c1c(Br)c(NCc2cccc(C(F)(F)F)c2)ccn1Cc1cccc(F)c1 ?
Found: 1 to 25 µM

Lookup: And CNC(=O)NCc1cccc(-n2c(C)cc(OCc3ccc(F)cc3F)c(Br)c2=O)c1 ?
Found: 1 to 25 µM

Lookup: And C=CCNc1cc(=O)n(-c2c(F)cccc2F)c(C)c1I ?
Found: 1 to 25 µM

Lookup: And Cc1cc(OCc2ccc(F)cc2F)c(Br)c(=O)n1-c1ccc(C(=O)NCCN)cc1 ?
Found: < 1 µM

Lookup: And O=c1c(Cl)c(OCc2ccc(F)cc2F)cc(CO)n1-c1c(F)cc(F)cc1F ?
Found: < 1 µM
